Data origin, for the record: patent US20240335431A1

target: Menin protein (Homo sapiens, UniProt O00255, DEL460-519); experiment: Menin/MLL fluorescence polarization (FP) assay; type: binding; settings: Menin 2 nM, cRho110-Ahx-MBM1/MBM2 peptide 1 nM
Sequence (O00255 with tags, fused parts or gaps DEL460-519): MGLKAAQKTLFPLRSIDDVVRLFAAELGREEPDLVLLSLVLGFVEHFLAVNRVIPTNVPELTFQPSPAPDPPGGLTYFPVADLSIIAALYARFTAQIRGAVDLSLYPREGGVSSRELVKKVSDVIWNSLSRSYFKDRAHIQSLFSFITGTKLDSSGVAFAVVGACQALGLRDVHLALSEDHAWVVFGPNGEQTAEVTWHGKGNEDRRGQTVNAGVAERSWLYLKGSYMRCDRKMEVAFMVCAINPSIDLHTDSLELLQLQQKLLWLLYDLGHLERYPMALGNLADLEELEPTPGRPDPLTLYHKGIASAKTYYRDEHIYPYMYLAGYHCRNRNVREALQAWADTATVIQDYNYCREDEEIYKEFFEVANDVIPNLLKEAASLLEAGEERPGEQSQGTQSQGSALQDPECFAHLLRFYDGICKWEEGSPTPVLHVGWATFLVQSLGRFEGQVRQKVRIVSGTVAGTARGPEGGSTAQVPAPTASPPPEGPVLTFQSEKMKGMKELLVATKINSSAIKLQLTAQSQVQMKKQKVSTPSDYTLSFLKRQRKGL
Quick list: IC50 per entry.
quantityName: IC50 (nM)

1) Cc1c(C(=O)C2CCN(C(=O)[C@@H]3CCC4(CC4)N3)CC2)c2ccncc2n1-c1ccc(F)cc1C(=O)N1[C@H](C)COC[C@H]1C (single isomer, unassigned) | 30
2) Cc1c(C(=O)[C@@H]2CCN(C(=O)[C@H]3NC[C@@H]4C[C@@H]43)[C@@H](C)C2)c2ccncc2n1-c1ccc(F)cc1C(=O)N(CC(F)(F)F)C(C)C (single isomer, unassigned) [Example 53-4] | 48
3) CCN(C(=O)c1cc(F)ccc1-n1c(C)c(C(=O)[C@@H]2CCN(C(=O)[C@@H]3CCC4(CC4)N3)[C@@H](C)C2)c2ccncc21)C(C)C (single isomer, unassigned) [Example 52-3] | 5950
4) CCN(C(=O)c1cc(F)ccc1-n1c(C)c(C(=O)C2CCN(C(=O)[C@H]3NC[C@@H]4C[C@@H]43)CC2)c2ccncc21)C(C)C (single isomer, unassigned) | 13
5) Cc1c(C(=O)C2CCN(C(=O)[C@@H]3CCC(C)(C)N3)CC2)c2ccncc2n1-c1ccc(F)cc1C(=O)N(C(C)C)C(C)C (single isomer, unassigned) | 43
6) CC(C)N(C(=O)c1cc(F)ccc1-n1cc(C(=O)C2CCN(C(=O)[C@H]3NC4CCC3CC4)CC2)c2ccncc21)C(C)C | 22
7) Cc1c(C(=O)C2CCN(C(=O)[C@H]3NC[C@@H]4C[C@@H]43)CC2)c2ccncc2n1-c1ccc(F)cc1C(=O)N(C(C)C)C(C)C (single isomer, unassigned) | 9
8) CCN(C(=O)c1cc(F)ccc1-n1c(C)c(C(=O)C2CCN(C(=O)[C@@H]3CCC4(CC4)N3)CC2)c2ccncc21)C(C)C (single isomer, unassigned) | 29
9) [2H]C([2H])([2H])C([2H])(N(C(=O)c1cc(F)ccc1-n1c(C)c(C(=O)C2CCN(C(=O)[C@@H]3CCC(C)(C)N3)CC2)c2ccncc21)C([2H])(C([2H])([2H])[2H])C([2H])([2H])[2H])C([2H])([2H])[2H] | 102

====

Quick list: HLM CLint per entry.
experiment: Human liver microsomes (HLMs) intrinsic clearance assay; type: in vitro ADME; conditions: human, microsomes, 1 µM, pH 7.4
quantityName: HLM CLint

1. Cc1c(C(=O)C2CCN(C(=O)[C@H]3NC[C@@H]4C[C@@H]43)CC2)c2ccncc2n1-c1ccc(F)cc1C(=O)N(C(C)C)C(C)C (single isomer, unassigned) | 194 µL/min/mg
2. Cc1c(C(=O)C2CCN(C(=O)[C@@H]3CCC(C)(C)N3)CC2)c2ccncc2n1-c1ccc(F)cc1C(=O)N(C(C)C)C(C)C (single isomer, unassigned) | 91 µL/min/mg
3. CCN(C(=O)c1cc(F)ccc1-n1c(C)c(C(=O)C2CCN(C(=O)[C@H]3NC[C@@H]4C[C@@H]43)CC2)c2ccncc21)C(C)C (single isomer, unassigned) [Example 48-1] | 69 µL/min/mg
4. CCN(C(=O)c1cc(F)ccc1-n1c(C)c(C(=O)C2CCN(C(=O)[C@@H]3CCC(C)(C)N3)CC2)c2ccncc21)C(C)C (single isomer, unassigned) [Example 50-2] | 48 µL/min/mg
5. Cc1c(C(=O)C2CCN(C(=O)[C@H]3NC[C@@H]4C[C@@H]43)CC2)c2ccncc2n1-c1ccc(F)cc1C(=O)N(C(C)C)[C@H](C)C(F)(F)F (single isomer, unassigned) | 95 µL/min/mg
6. Cc1c(C(=O)[C@@H]2CCN(C(=O)[C@H]3NC[C@@H]4C[C@@H]43)[C@@H](C)C2)c2ccncc2n1-c1ccc(F)cc1C(=O)N(CC(F)(F)F)C(C)C (single isomer, unassigned) [Example 53-1] | 116 µL/min/mg
7. CCN(C(=O)c1cc(F)ccc1-n1c(C)c(C(=O)C2CCN(C(=O)[C@@H]3CCC(C)(C)N3)CC2)c2ccncc21)C(C)C (single isomer, unassigned) [Example 50-1] | 183 µL/min/mg

====

target: hERG (Homo sapiens (Human), UniProt Q12809); experiment: hERG assay 1 (standard), SyncroPatch 384PE; format: cell-based; settings: CHO cells, room temperature, up to 40 uM
Sequence (Q12809 whole entry): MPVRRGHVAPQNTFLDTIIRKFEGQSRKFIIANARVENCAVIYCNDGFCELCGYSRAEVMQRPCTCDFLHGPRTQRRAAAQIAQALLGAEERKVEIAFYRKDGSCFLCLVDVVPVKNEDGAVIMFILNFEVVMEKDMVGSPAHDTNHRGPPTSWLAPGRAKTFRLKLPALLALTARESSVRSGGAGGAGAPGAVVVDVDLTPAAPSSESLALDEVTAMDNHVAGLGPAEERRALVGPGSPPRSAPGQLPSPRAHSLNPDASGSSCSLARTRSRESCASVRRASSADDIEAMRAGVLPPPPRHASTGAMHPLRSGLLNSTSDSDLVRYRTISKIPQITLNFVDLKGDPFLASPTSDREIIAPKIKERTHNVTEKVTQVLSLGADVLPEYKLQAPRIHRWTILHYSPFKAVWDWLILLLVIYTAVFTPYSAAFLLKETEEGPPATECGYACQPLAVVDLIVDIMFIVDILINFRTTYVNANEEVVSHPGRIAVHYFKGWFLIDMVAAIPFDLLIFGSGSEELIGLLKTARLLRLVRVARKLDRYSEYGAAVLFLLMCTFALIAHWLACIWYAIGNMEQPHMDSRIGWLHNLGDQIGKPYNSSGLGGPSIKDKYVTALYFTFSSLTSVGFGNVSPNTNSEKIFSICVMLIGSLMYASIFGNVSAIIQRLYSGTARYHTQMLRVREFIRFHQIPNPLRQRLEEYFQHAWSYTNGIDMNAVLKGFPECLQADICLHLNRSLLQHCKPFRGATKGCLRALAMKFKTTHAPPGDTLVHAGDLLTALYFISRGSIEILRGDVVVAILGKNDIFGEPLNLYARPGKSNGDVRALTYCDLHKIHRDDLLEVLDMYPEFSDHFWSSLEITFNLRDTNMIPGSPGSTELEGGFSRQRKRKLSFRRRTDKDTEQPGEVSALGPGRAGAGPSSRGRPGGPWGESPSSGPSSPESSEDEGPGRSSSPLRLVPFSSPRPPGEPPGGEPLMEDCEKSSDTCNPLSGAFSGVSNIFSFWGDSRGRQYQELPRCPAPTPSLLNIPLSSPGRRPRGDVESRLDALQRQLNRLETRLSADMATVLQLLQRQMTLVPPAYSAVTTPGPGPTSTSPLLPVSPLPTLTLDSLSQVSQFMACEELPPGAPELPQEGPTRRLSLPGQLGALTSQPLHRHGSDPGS
pIC50: −log10 of the molar value.
Quick list: pIC50 per entry.
quantityName: pIC50

1) CCN(C(=O)c1cc(F)ccc1-n1c(C)c(C(=O)[C@@H]2CCN(C(=O)[C@@H]3CCC4(CC4)N3)[C@@H](C)C2)c2ccncc21)C(C)C (single isomer, unassigned) | 4.85
2) COCCN(C)CCC[C@H](C(C)C)N1CCC(C(=O)c2cn(-c3ccc(F)cc3C(=O)N(C(C)C)C(C)C)c3cnccc23)CC1 (racemic) | 4.51

====

test: Caco-2 cell monolayers intrinsic permeation assay in the presence of efflux inhibitors; assay type: in vitro ADME; details: Caco-2, with efflux inhibitors
If the reported Papp A→B equals or exceeds 3 ×10⁻⁶ cm/s, assign y. If not, assign n.

1) CC(C)c1cnccc1-c1cc(F)ccc1-n1cc(C(=O)C2CN(C(=O)[C@H]3N[C@@H]4CC[C@H]3C4)C2)c2ccncc21.O=CO | n
2) CCN(C(=O)c1cc(F)ccc1-n1c(C)c(C(=O)[C@@H]2CCN(C(=O)[C@@H]3CC[C@@H](C)N3)[C@@H](C)C2)c2ccncc21)C(C)C (stereo in doubt) | n
3) CC(C)N(C(=O)c1cc(F)ccc1-n1cc(C(=O)C2CCN(C(=O)[C@H]3NC[C@@H]4C[C@@H]43)CC2)c2ccncc21)C(C)C | n
4) Cc1c(C(=O)C2CCN(C(=O)[C@H]3NC[C@@H]4C[C@@H]43)CC2)c2ccncc2n1-c1ccc(F)cc1C(=O)N(C(C)C)C(C)C (single isomer, unassigned) | y
5) CCN(C(=O)c1cc(F)ccc1-n1cc(C(=O)C2CCN(C(=O)[C@H]3N[C@@H]4CC[C@H]3C4)CC2)c2ccncc21)C(C)C | n

====

target: UniProtKB Q12809; assay: hERG assay 1 (standard), SyncroPatch 384PE; assay type: cell-based; conditions: CHO cells, room temperature, up to 40 uM
Quick list: IC50 per entry.
quantityName: IC50

1. CCN(C(=O)c1cc(F)ccc1-n1c(C)c(C(=O)C2CCN(C(=O)[C@H]3NC[C@@H]4C[C@@H]43)CC2)c2ccncc21)C(C)C [Example 47] | > 40 µM
2. CC(C)n1nccc1-c1cc(F)ccc1-n1cc(C(=O)C2CCN(C(=O)[C@H]3N[C@@H]4CC[C@H]3C4)CC2)c2ccncc21 | > 40 µM
3. CCN(C(=O)c1cc(F)ccc1-n1c(C)c(C(=O)[C@@H]2CCN(C(=O)[C@@H]3CC[C@@H](C)N3)[C@@H](C)C2)c2ccncc21)C(C)C (stereo in doubt) | > 40 µM

====

target: muscarinic M2 receptor (Homo sapiens (Human), UniProt P08172)
Sequence (P08172 whole entry): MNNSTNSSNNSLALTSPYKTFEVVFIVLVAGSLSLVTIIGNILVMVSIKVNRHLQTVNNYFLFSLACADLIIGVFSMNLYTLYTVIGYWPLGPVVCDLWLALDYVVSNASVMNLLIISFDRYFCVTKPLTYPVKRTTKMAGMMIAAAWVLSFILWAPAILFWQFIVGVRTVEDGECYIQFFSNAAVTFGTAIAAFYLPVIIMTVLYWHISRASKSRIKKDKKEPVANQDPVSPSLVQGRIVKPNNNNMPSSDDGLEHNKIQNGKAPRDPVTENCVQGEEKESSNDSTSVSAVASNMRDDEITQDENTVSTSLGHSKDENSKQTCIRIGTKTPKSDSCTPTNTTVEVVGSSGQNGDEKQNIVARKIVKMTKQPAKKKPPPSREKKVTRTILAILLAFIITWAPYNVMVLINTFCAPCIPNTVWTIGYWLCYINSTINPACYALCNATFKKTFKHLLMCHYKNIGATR
Ki under 5 µM gets T, anything at or over 5 µM gets F.

1) CC(C)N(C(=O)c1cc(F)ccc1-n1cc(C(=O)C2CCN(C(=O)[C@H]3N[C@H]4C[C@@H]3[C@@H](F)C4)CC2)c2ccncc21)C(C)C [Example 22] | T
2) CC(C)N(C(=O)c1cc(F)ccc1-n1cc(C(=O)C2CN(C(=O)[C@H]3N[C@@H]4CC[C@H]3C4)C2)c2ccncc21)C(C)C [Example 5] | F
3) CC(C)N(C(=O)c1cc(F)ccc1-n1cc(C(=O)[C@H]2CCN(C[C@H]3CC[C@H](NS(C)(=O)=O)CC3)C2)c2ccncc21)C(C)C [Example 1] | F
4) CC(C)(F)c1ncccc1-c1cc(F)ccc1-n1cc(C(=O)C2CN(C(=O)[C@H]3N[C@@H]4CC[C@H]3C4)C2)c2ccncc21 [Example 13] | F
5) CCN(C(=O)c1cc(F)ccc1-n1cc(C(=O)C2CCN(C(=O)[C@H]3NC[C@@H]4C[C@@H]43)CC2)c2ccncc21)C(C)C [Example 28] | T

====

assay: Human liver microsomes (HLMs) intrinsic clearance assay; format: in vitro ADME; details: human, microsomes, pH 7.4, HLM CLint
quantityName: microsomal CLint at 1 µM

1) C=C1C[C@@H]2CC[C@H]1[C@@H](C(=O)N1CCC(C(=O)c3cn(-c4ccc(F)cc4C(=O)N(C(C)C)C(C)C)c4cnccc34)CC1)N2 | 172 µL/min/mg
2) CC(C)n1nccc1-c1cc(F)ccc1-n1cc(C(=O)C2CCN(C(=O)[C@H]3N[C@@H]4CC[C@H]3C4)CC2)c2ccncc21 | 58 µL/min/mg
3) Cc1c(C(=O)C2CCN(C(=O)[C@@H]3CC[C@@H](C)N3)CC2)c2ccncc2n1-c1ccc(F)cc1C(=O)N(C(C)C)C(C)C | 83 µL/min/mg
4) CC(C)c1ncncc1-c1cc(F)ccc1-n1cc(C(=O)C2CCN(C(=O)[C@H]3N[C@@H]4CC[C@H]3C4)CC2)c2ccncc21 | 52 µL/min/mg
5) C[C@@H]1CC[C@H](C)N1C(=O)c1cc(F)ccc1-n1cc(C(=O)C2CCN(C(=O)[C@H]3N[C@@H]4CC[C@H]3C4)CC2)c2ccncc21 | 18 µL/min/mg
6) COCCN(C)CCC[C@H](C(C)C)N1CCC(C(=O)c2cn(-c3ccc(F)cc3C(=O)N(C(C)C)C(C)C)c3cnccc23)CC1 (racemic) | 156 µL/min/mg
